The following molecules are shown together with reported IC50 values.
# System: HT-29
# test protocol: Cytotoxicity of compound was measured for the growth inhibition of HT-29 human colon carcinoma cell line
# Format: functional, cell-based

| compound structure string | study system | unit text | IC50 |
| --- | --- | --- | --- |
| C=CCO[C@@H]1[C@H](O)[C@H](Oc2ccc(I)cc2)O[C@@H](COCc2ccc(OC)cc2)[C@H]1O | HT-29 | µM | 19.7 |
| C=CCO[C@H]1[C@H](O)[C@H](COS(=O)(=O)c2cccc(C(F)(F)F)c2)O[C@H](Oc2ccc(I)cc2)[C@@H]1OC(=O)CCC | HT-29 | µM | 4 |
| CCCO[C@H]1[C@H](O)[C@H](COS(=O)(=O)c2cccc(C(F)(F)F)c2)O[C@@H](Oc2ccc(OP(=O)(O)O)cc2)[C@H]1OC(C)=O | HT-29 | µM | 35.5 |
| C=CCO[C@H]1[C@H](O)[C@H](COS(=O)(=O)c2cccc(C(F)(F)F)c2)O[C@@H](Oc2ccc(I)cc2)[C@H]1OC(=O)CC | HT-29 | µM | 4.65 |
| O=C(CCc1ccccc1)O[C@@H]1[C@H](Oc2ccc(I)cc2)O[C@@H](COS(=O)(=O)c2cccc(C(F)(F)F)c2)[C@@H](O)[C@@H]1OCCOC(=O)Nc1ccccc1 | HT-29 | µM | 7.15 |
| C=CCO[C@H]1[C@H](O)[C@H](COS(=O)(=O)c2cccc(C(F)(F)F)c2)O[C@@H](Oc2ccc(I)cc2)[C@H]1OC(=O)c1ccccc1 | HT-29 | µM | 7.5 |

====

# System: HT-29
# test protocol: Cytotoxicity of compound was measured for the growth inhibition of HT-29 human colon carcinoma cell line
# Format: functional, cell-based
quantity measured: log10 of IC50 (log10 of the value in µM)

| compound structure string | log10 of IC50 |
| --- | --- |
| C=CCO[C@@H]1[C@H](O)[C@H](Oc2ccc(I)cc2)O[C@@H](COC(=O)c2ccc(OC)cc2)[C@H]1O | 1.74 |
| C=CCO[C@H]1[C@H](O)[C@H](COS(=O)(=O)c2cccc(C(F)(F)F)c2)O[C@@H](Oc2ccc(I)cc2)[C@H]1OC(=O)CCc1ccccc1 | 0.48 |
| C=CCO[C@H]1[C@H](O)[C@H](COS(=O)(=O)c2ccc3ccccc3c2)O[C@@H](Oc2ccc(I)cc2)[C@H]1OC(C)=O | 1.06 |
| C=CCO[C@H]1[C@@H](O)[C@H](COS(=O)(=O)c2cccc(C(F)(F)F)c2)O[C@@H](Oc2ccc(I)cc2)[C@H]1OC(=O)C(C)C | 0.62 |
| C=CCO[C@H]1[C@H](O)[C@H](COS(=O)(=O)c2cccc(C(F)(F)F)c2)O[C@@H](Oc2ccc(I)cc2)[C@H]1OC(C)=O | 1.36 |
| NC(=O)OCCO[C@@H]1[C@H](O)[C@H](Oc2ccc(I)cc2)O[C@@H](COS(=O)(=O)c2ccc3ccccc3c2)[C@H]1O | 1.36 |

====

# Tested on: HT-29
# test protocol: Cytotoxicity of compound was measured for the growth inhibition of HT-29 human colon carcinoma cell line
# Format: functional, cell-based
The following molecules are shown together with reported IC50 values.

| molecule | reported relation | IC50, µM |
| --- | --- | --- |
| O=C(Nc1ccccc1)OCCO[C@@H]1[C@H](O)[C@H](Oc2ccc(I)cc2)O[C@@H](COS(=O)(=O)c2ccc3ccccc3c2)[C@H]1O | = | 3.67 |
| CCCO[C@H]1[C@H](O)[C@H](COS(=O)(=O)c2ccc3ccccc3c2)O[C@@H](Oc2ccc(OP(=O)(O)O)cc2)[C@H]1OC(C)=O [GLYCOMER] | > | 50 |
| C=CCO[C@H]1[C@H](O)[C@H](COS(=O)(=O)c2cccc(C(F)(F)F)c2)O[C@@H](Oc2ccc(I)cc2)[C@H]1OC(=O)Cc1ccccc1 | = | 4.95 |

====

The following compounds are shown together with reported pIC50 values.
# System: HT-29
# test protocol: Cytotoxicity of compound was measured for the growth inhibition of HT-29 human colon carcinoma cell line
# Type: functional, cell-based
pIC50: −log10 of the molar value.

| compound structure string | reported relation | pIC50 |
| --- | --- | --- |
| C=CCO[C@@H]1[C@H](O)[C@H](Oc2ccc(I)cc2)O[C@@H](COC(=O)c2ccc(Cl)cc2)[C@H]1O | = | 4.60 |
| C=CCO[C@@H]1[C@H](O)[C@H](Oc2ccc(I)cc2)O[C@@H](COS(=O)(=O)c2cccc(C(F)(F)F)c2)[C@H]1O | = | 4.45 |
| C=CCO[C@@H]1[C@H](O)[C@H](Oc2ccc(I)cc2)O[C@@H](COC(=O)c2ccc3ccccc3c2)[C@H]1O | < | 4.30 |
